- Tested on: RXF 393
- experiment.notes: NCI tumour cell line growth inhibition, 48 h
Calls of active or inactive are those of the source. Cut-off read from the data, not from the text of the source: active = GI50 up to about 1.1 µM and inactive = higher.
For each entry below, report its GI50 value.

Please indicate GI50 recorded for CC1(C)N=C(N)N=C(N)N1c1cccc(OCc2cccc(N)c2)c1
41.9 µM (inactive)

Could you please provide reported GI50 for CCOC(=O)c1c(C)c2c(n1C)CCc1c[nH]nc1-2 ? Thanks!
> 100 µM (inactive)

Quote GI50 reported for O=C1OC(c2ccccc2)=N/C1=C\c1c(O)cc(O)cc1O please.
> 100 µM (inactive)

Give reported GI50 value for COc1cc(/C=C\c2ccc(O)cc2)cc(OC)c1OC
3.78 µM (inactive)

Let me know recorded GI50 for CCOc1ccccc1/C=C1\NC(=O)N(/C=C2\C(=O)Oc3ccccc3C2=O)C1=O , thanks.
9.82 µM (inactive)

// Input: Cc1ccccc1-c1c(N)nc(N)nc1C(=O)Nc1nccs1 . Output its GI50 only.
> 100 µM (inactive)

Kindly indicate its recorded GI50. Item: NC1=C(NC(=O)Cc2ccc(F)cc2)C(=O)c2ccccc2C1=O
24.6 µM (inactive)

For the molecule CCOC(=O)c1cnc2sc3ccc4ccccc4c3n2c1=O , report GI50.
> 100 µM (inactive)

Return the recorded GI50 value; entry: CC(=O)NC1C(OCc2ccccc2)OC(COC(=O)CCCCCNc2ccc([N+](=O)[O-])c3[nH]c4ccc(O)cc4c(=O)c23)C(O)C1OC(C)C(=O)N[C@@H](C)C(=O)N[C@H](CCC(=O)OCc1ccccc1)C(N)=O (stereo not given in full)
1.6 µM (inactive)

For O=C1c2ccccc2-c2oc(=O)c3ccccc3c21 , write its GI50.
> 100 µM (inactive)
